Values were extracted from PubChem BioAssay.

test: modulators of S6 phosphorylation in cells, primary screen, cell-based, A549, cytoblot, luminescence, serum-stimulated (AID 1158); settings: A549 phospho-S6 cytoblot, 5 h, higher = more signal;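 note: serum-stimulated A549 lung adenocarcinoma cells; signal is phosphorylated S6 detected by cytoblot immunostaining with HRP secondary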
experimental_endpoint: z-score

> print(dat)
                                   molecule  reported.measurement
1  CC(C)[Si]1(C(C)C)O[C@@H](c2ccccc2)c2cc(-c3ccc(-c4ccc(Cl)c(Cl)c4)o3)nc(-c3ccccc3)c21                -0.121
2  O=C1C2C=CC(C(O)CCc3ccccc3)N(Nc3ccccc3F)C2C(=O)N1c1ccccc1 (stereo not drawn)                -0.638
3  C=C(COC)C(=O)CC[C@@H](OC(C)=O)c1ccc(CO)o1                -0.142
4  CO[C@H]1O[C@H](CO)[C@@H](OC(=O)Nc2cccc(F)c2)[C@H](OC(=O)Nc2ccccc2)[C@@H]1OC(=O)Nc1ccccc1                 0.646
5  NC(=O)N1C(=O)C2C(C1=O)C1C=C(c3ccc(CO)cc3)C2C(c2cccs2)N1Cc1cccc(OC(F)(F)F)c1 (stereo not drawn)                  2.65
6  CN1C(=O)C2C=CC(C(O)c3ccco3)N(Nc3ccccc3)C2C1=O (stereo not drawn)                  -1.2
7  CC(C)CNC(=O)[C@@]1(Cc2ccccc2I)c2ccccc2C(=O)N(C2CCCCC2)[C@H]1c1ccc(CO)cc1                -0.141
8  CCCC[C@H]1OB(O)C[C@H]2C1=C(COC)Cn1c(=O)n(-c3ccccc3)c(=O)n12                 0.385
